study-system: T1, hBCMA (human BCMA) (Homo sapiens, UniProt Q02223)
T1 sequence (Q02223 1-184): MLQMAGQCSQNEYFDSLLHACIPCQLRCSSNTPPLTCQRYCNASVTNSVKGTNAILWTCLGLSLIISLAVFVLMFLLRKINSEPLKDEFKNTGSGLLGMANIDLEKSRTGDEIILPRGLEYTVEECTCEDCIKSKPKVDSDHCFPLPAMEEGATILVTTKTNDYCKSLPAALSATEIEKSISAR
assay-explanation: Kinetics and affinity of hBCMA/human IgG interactions by SPR (Bio-Rad Proteon XPR36)
Assay type: binding
experimental-parameters: huBCMA, 37° C.
Collected kd (1/s) huBCMA @37° C. values appear next to each entry.
Express the result in s⁻¹ but write the number alone.

Prompt: Need kd (1/s) huBCMA @37° C., item L3.PY/L1.AH/H2.YQ: anti-BCMA antibody (antibody, V domains shown) VH: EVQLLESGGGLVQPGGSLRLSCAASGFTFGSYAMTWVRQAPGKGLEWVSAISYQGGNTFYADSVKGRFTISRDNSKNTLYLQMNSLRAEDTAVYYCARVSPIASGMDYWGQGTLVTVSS VL: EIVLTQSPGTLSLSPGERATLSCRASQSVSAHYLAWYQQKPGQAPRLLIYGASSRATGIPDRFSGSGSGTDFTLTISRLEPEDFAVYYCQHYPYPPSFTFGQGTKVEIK
Response: 0.00193

Turning now to a further molecule:
Prompt: Need kd (1/s) huBCMA @37° C., item L3.PY/L1.PS/H2.HA: anti-BCMA antibody (antibody, V domains shown) VH: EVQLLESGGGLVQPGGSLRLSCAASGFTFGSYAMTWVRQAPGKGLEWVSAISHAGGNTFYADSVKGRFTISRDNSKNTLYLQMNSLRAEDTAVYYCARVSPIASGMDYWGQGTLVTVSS VL: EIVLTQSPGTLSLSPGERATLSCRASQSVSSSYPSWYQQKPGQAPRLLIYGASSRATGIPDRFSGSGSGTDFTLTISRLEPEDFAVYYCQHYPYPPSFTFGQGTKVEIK
Response: 0.0106
